Recorded log10(IC50) by entry
- Test system: T47D cells
- ASSAY_INFO: Cell-based assay: anti-proliferative activity, Cell Counting Kit-8, 72 hours (T47D)
- ASSAY_SETUP: Homo sapiens, T47D, 72 h
Where a name gives a salt, the structure may show the parent alone.
METRIC_NAME: log10(IC50) (log10 of the value in µM)

COc1cc(-c2ccc3ncc(C(=O)C4CC4)c(Nc4ccc(Cn5ccnc5)cc4)c3c2)cc(Cl)c1O = -0.11
COc1cc(-c2ccc3ncc(C(=O)C4CC4)c(Nc4ccc(C(C)(C)N)cc4)c3c2)cc(Cl)c1O = -0.28
CC(=O)c1cnc2cc(F)c(-c3cc(Cl)c(O)c(Cl)c3)cc2c1N[C@H]1CC[C@H](CN(C)C)CC1 [Example 903, hydrochloride] = -0.26
CCN(CC)C[C@H]1CC[C@H](Nc2c(C(C)=O)cnc3ccc(-c4cc(Cl)c(O)c(Cl)c4)cc23)CC1 = -1.00
CC(=O)c1cnc2ccc(-c3cc(Cl)c(O)c(Cl)c3)cc2c1N[C@H]1CCC[C@@H](CN2CCN(C)CC2)C1 [Example 835, hydrochloride] = -0.24
NC1CCN(c2cc(Nc3c(C(=O)C4CC4)cnc4ccc(-c5cc(Cl)c(O)c(Cl)c5)cc34)ccn2)CC1 = 0.00
CN(C)C[C@H]1CC[C@H](Nc2c(S(C)(=O)=O)cnc3ccc(-c4cc(Cl)c(O)c(Cl)c4)cc23)CC1 = -0.33
O=C(c1cnc2cc(F)c(-c3cc(Cl)c(O)c(Cl)c3)cc2c1Nc1ccc(N2CCNCC2)nc1)C1CC1 = -0.34
O=C(c1cnc2ccc(-c3cc(Cl)c(O)c(Cl)c3)cc2c1N[C@H]1CC[C@H](CN2CCC(O)C2)CC1)C1CC1 (some centres unmarked) = -1.11
COc1cc(-c2ccc3ncc(C(=O)C4CC4)c(Nc4ccc(N5CCC(N(C)C)C5)nc4)c3c2)cc(Cl)c1O (centres unmarked) = -0.55
O=C(c1cnc2ccc(-c3cc(Cl)c(O)c(Cl)c3)cc2c1N1CCC(C2CCNCC2)CC1)C1CC1 = -0.74
CC(=O)c1cnc2ccc(-c3cc(F)c(O)c(Cl)c3)cc2c1NC1CCC(C(=O)N2CCN(C)CC2)CC1 (centres unmarked) [Example 849, hydrochloride] = -0.33
COc1cc(-c2ccc3ncc(C(=O)C4CC4)c(Nc4ccc(CN5CCN(C)CC5)nc4)c3c2)cc(Cl)c1O = -0.16
O=C(c1cnc2ccc(-c3cc(F)c(O)c(Cl)c3)cc2c1NC1CCC(N2CCC(F)(F)C2)CC1)C1CC1 (centres unmarked) = -0.10
